target: T1, HER2 expressed on the surface of cells (human, UniProt P04626 23-1255)
T1 construct: whole, on cells; also called ErbB2
measurementNotes: flow cytometry on BT474 cells, n=1
measuredEndpoint: Bmax (MFI)
Numbers only here, please. The scale is MFI.

Looking up Variant 12471 (antibody, human IgG1, kappa, name in Kabat numbering, V domains shown, Kabat numbering; also called v12471; FSA version of v9996) VH: EVQLVESGGGLVQPGGSLRLSCAASGFTFADYTMDWVRQAPGKGLEWVGDVNPNSGGSIYNQRFKGRFTFSVDRSKNTLYLQMNSLRAEDTAVYYCARNLGPSFYFDYWGQGTLVTVSS VL: DIQMTQSPSSLSASVGDRVTITCKASQDVSIGVAWYQQKPGKAPKLLIYSASYRYTGVPSRFSGSGSGTDFTLTISSLQPEDFATYYCQQYYIYPATFGQGTKVEIKR , I see its Bmax listed as 23000

Field: next binder
Looking up Variant 14021 (antibody, name in Kabat numbering, V domains shown, also called v14021) VH: EVQLVESGGGLVQPGGSLRLSCAASGFTFQDYTMDWVRQAPGKGLEWVGDVNPNSGGSIYNQRFKGRFTFSVDRSWNTLYLQMNSLRAEDTAVYYCARNLGPSFYFDYWGQGTLVTVSS VL: DIQMTQSPSSLSASVGDRVTITCKASQDVSIGVAWYQQKPGKAPKLLIWSASYRYTGVPSRFSGSGSGTDFTLTISSLQPEDFATYYCQQYYIYPYTFGQGTKVEIKR , I see its Bmax listed as 23000
